# Tested target: c-Met (cytoplasmic domain) (Homo sapiens)
# Construct: 10 ng/mL c-Met (cytoplasmic domain, Invitrogen Corporation #PV3143); purchased Invitrogen Corporation PV3143
# Sequence (P08581 956-1390 limits assumed): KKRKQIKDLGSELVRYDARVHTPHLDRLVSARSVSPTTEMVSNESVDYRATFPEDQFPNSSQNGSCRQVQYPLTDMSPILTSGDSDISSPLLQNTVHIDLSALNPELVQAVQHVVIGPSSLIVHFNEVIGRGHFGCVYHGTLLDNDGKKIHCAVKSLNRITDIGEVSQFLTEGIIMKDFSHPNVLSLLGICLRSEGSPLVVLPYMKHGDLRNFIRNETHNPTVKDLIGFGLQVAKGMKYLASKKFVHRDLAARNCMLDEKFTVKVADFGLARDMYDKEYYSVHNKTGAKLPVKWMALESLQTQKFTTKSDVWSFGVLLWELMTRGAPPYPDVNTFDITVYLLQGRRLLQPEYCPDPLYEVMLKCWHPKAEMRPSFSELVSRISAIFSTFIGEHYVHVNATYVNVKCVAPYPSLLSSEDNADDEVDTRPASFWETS
# Method: c-Met Kinase Assay (same methods as for ALK, with modifications)
# Assay type: biochemical
# Experimental context: 1 μM ATP (Km level), 10 ng/mL c-Met; read-out: cMet Activity (c-Met kinase inhibition, IC50 class)
Reported IC50 values follow for various compounds

Worked cases, answers included:
[
  {
    "Compound": "COCCNC1CCc2cc(Nc3ncc(Cl)c(Nc4ccccc4S(=O)(=O)N(C)C)n3)c(OC)cc2CC1 (stereo not drawn) [Example 1083]",
    "IC50": "1000 to 10000 nM"
  },
  {
    "Compound": "COc1cc2c(cc1Nc1ncc(Cl)c(Nc3ccccc3S(=O)(=O)N3CCCC3)n1)CCN(CCS(C)(=O)=O)CC2 [Example 1178]",
    "IC50": "100 to 1000 nM"
  },
  {
    "Compound": "CCN1C(=O)C(NC(=O)CN(C)C)CCc2c1ccc(Nc1ncc(Cl)c(Nc3ccccc3S(=O)(=O)N(C)C)n1)c2OC (stereo not drawn) [Example 1356]",
    "IC50": "> 10000 nM"
  },
  {
    "Compound": "CC(=O)N1CCC(=O)NCc2cc(Nc3ncc(Cl)c(Nc4ccccc4CCC#N)n3)ccc21 [Example 1233]",
    "IC50": "100 to 1000 nM"
  },
  {
    "Compound": "CNC(=O)CN1CCc2cc(Nc3ncc(Cl)c(NC4C5C=CC(C5)C4C(N)=O)n3)c(OC)cc2CC1 (stereo not drawn) [Example 1117]",
    "IC50": "> 10000 nM"
  }
]

Give its IC50 value. Item: COCCNC1CCc2cc(Nc3ncc(Cl)c(Nc4ccccc4S(=O)(=O)N4CCCC4)n3)c(OC)cc2CC1 (stereo not drawn) [Example 1081] 1000 to 10000 nM
